- Test system: Staphylococcus aureus
- PROTOCOL SUMMARY: Potentiation of methicillin-induced antibacterial activity against Staphylococcus aureus ATCC 33592 assessed as minimum modulatory concentration up to 32 uM measured after 16 hrs in presence of MIC/4 methicillin
- Type: functional
- REPORTED CONDITIONS: ATCC 33592, 16 h, read-out: MEC
// boundary case: minimal effective concentration equal to 4 µM maps to Not fulfilled; strictly smaller maps to Fulfilled

Known results for compounds:
Cc1nc(-c2ccccc2)c(O)cc1C(=O)O | Fulfilled
C[n+]1cc(O)c(C(=O)[O-])cc1-c1ccccc1 | Not fulfilled
COc1cccc(-c2cc(C(=O)O)c(O)cn2)c1 | Not fulfilled
O=C(O)c1ccnc(Cc2ccccc2)c1O | Not fulfilled
O=C(O)c1cnc(-c2ccccc2)c(O)c1 | Fulfilled
O=C(O)c1cc(-c2ccc(F)cc2F)ncc1O | Fulfilled
Cc1cc(C(=O)O)c(O)c(Cc2ccccc2)n1 | Not fulfilled
Cc1nc(-c2ccccc2)cc(C(=O)O)c1O | Not fulfilled

Request: Bench note: check whether O=C(O)c1cnc2c(F)cc(F)cc2c1O shows minimal effective concentration below 4 µM
Result: Fulfilled

Request: Please indicate whether the reported minimal effective concentration of O=C(O)c1cc(-c2ccccc2)ncc1O is strictly below 4 µM.
Result: Not fulfilled

Request: In plain terms, does O=C(O)c1cc(-c2ccc(F)cc2F)ccc1O come in under 4 µM for minimal effective concentration?
Result: Not fulfilled

Request: Below 4 µM on minimal effective concentration? Entry O=C(O)c1ccnc(-c2ccccc2)c1O
Result: Fulfilled
